These measurements were taken from ChEMBL document CHEMBL4837245.

# assay_explanation: Ratio of drug concentration in brain to plasma of rat at 1 mg/kg, po after 1 hr
# Type: ADME, organism-based
measured_property: Kp at 1 h

{"smiles_input": "Fc1cc(F)c(F)c(-c2ccc(N[C@H]3C[C@@H]4CN(CC5CCOCC5)C[C@@H]4C3)nn2)c1", "recorded_result": 3.4}

----------
# target_or_test_system: Muscarinic acetylcholine receptor M5 (Homo sapiens)
# Sequence (P08912 whole entry): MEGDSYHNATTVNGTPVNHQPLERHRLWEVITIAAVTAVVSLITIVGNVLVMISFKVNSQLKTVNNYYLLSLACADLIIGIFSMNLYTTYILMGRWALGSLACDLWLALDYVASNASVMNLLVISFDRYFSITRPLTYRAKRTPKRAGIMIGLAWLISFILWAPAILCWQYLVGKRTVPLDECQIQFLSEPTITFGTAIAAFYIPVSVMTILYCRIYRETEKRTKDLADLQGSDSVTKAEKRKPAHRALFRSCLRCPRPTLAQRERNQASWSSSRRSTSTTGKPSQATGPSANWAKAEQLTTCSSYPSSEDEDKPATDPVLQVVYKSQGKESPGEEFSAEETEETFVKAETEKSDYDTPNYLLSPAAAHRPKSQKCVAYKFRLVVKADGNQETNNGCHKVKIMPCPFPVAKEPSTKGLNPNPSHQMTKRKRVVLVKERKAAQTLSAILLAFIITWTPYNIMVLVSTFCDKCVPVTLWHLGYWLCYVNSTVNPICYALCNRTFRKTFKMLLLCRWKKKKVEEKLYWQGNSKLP
# assay_explanation: Antagonist activity at human muscarinic M5 receptor expressed in CHO cells co-expressing Gqi5 assessed as inhibition of acetylcholine-induced calcium mobilization
pIC50: −log10 of the molar value.

{"smiles_input": "Fc1cc(F)c(F)c(-c2ccc(N[C@H]3C[C@@H]4CN(CC5CCOCC5)C[C@@H]4C3)nn2)c1", "pIC50": "< 5.00"}
